Reference for the values: PubChem BioAssay AID330

tested on: P388 leukemia ip, CD2F1 mice, survival T/C; experiment: NCI In Vivo Anticancer Drug Screen. Data for tumor model P388 Leukemia (intraperitoneal) in CD2F1 (CDF1) mice; details: endpoint: median survival time; dose: 400.0 mg/kg/injection; schedule: Q04DX003 (ip); vehicle: Klucel (hydroxypropylcellulose) (HPC); higher = longer survival
Toxic doses and inconclusive results are not listed.
Below, each of the molecules is paired with its reported T/C value.

The following molecules have reported results that may help.
molecule	T/C
CN(C)c1ccc(CCc2nc(N)nc3nccnc23)cc1	99 % of control
CNC(=O)NNc1ccccc1	103 % of control
CC(O)c1cccc(C(C)(C)O)c1Sc1c(C(C)(C)O)cccc1C(C)(C)O (stereo unspecified)	97 % of control
C=C1CC2(CCC3C4CC=C5CC(O)CCC5(C)C4CCC32C)OC1=O (stereo unspecified)	97 % of control

Answer with the recorded T/C of "c1ccc(CN2Cc3c(n(-c4ccccc4)c4ccccc34)C2)cc1" only. 114 % of control

Answer with the recorded T/C of O=C(NNC(O)C(F)(F)F)c1ccccc1 (stereo unspecified) only. 110 % of control
